- studySystem: ecDHFR DD firefly luciferase (ecDHFR.FLuc) (Escherichia coli, UniProt P0ABQ4, G67S/R12Y/Y100I)
- Format: in vivo, BALB/c mice
- testSettings: 1 mg (50 mg/kg) oral gavage, 6 h, mean ± SEM
measuredProperty: fold change in luminescence after treatment, eye (fold)

compound | assayValue
Nc1nc(N)c2ccccc2n1 | 1.6
Nc1nc(N)c2nc(-c3ccccc3)c(N)nc2n1 | 3.1
COc1ccc(COc2ccc(Cc3cnc(N)nc3N)cc2OC)cc1 | 8.6
C#CCC(Cc1cnc2nc(N)nc(N)c2n1)c1ccc(C(=O)N[C@@H](CCC(=O)O)C(=O)O)cc1 (stereo partly shown) [Pralatrexate] | 3.5
